Listing of entries alongside the reported NADPH fluorescence slope.
molecular target: Voltage-gated potassium channel subunit beta-2 (Rattus norvegicus); test: enhancers of rat Kvbeta2 NADPH turnover – biochemical, NADPH fluorescence, primary screen (AID 623); settings: Recombinant KvBeta, NADPH fluorescence decrease slope, 10 min; at 10 µM; active compounds read low;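 note: fluorescence intensity change per second fitted from 20 to 320 s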
The reply should be a number, written without any unit.

Guide cases for NADPH fluorescence slope, answers given:
{"columns": ["Molecule", "NADPH fluorescence slope"],
 "data": [
  ["O=C(CN1C(=O)COc2ccccc21)NCCN1CCc2ccccc2C1", "-5.4e-05"],
  ["CC(C(=O)c1ccccc1)n1cnc2ccccc2c1=O (stereo unspecified)", "-1.2e-05"],
  ["CCN(CC)CCOC(=O)c1cccc(OC)c1", "-2.4e-05"],
  ["CN(C)S(=O)(=O)N1CCN(c2cccc(Cl)c2)CC1", "7.3e-06"],
  ["O=C(N1CCN(c2ccccc2F)CC1)C12CC3CC(CC(C3)C1)C2", "2.5e-05"],
  ["Cc1nnc(SCC(=O)Nc2ccc3c4c(cccc24)CC3)n1C", "-4.5e-05"]
]}

Query: Look up NADPH fluorescence slope with Voltage-gated potassium channel subunit beta-2 (Rattus norvegicus) for this molecule: O=C(CSc1nnc(-c2ccccc2)o1)N1CCc2ccccc2C1
Reply: -6.2e-05

Query: Look up NADPH fluorescence slope with Voltage-gated potassium channel subunit beta-2 (Rattus norvegicus) for this molecule: Cc1ccc(N(C(=O)C2CCC(=O)N2)C2(C(=O)NC3CCCCC3)CCCCC2)cc1 (stereo unspecified)
Reply: 3.4e-05

Query: Look up NADPH fluorescence slope with Voltage-gated potassium channel subunit beta-2 (Rattus norvegicus) for this molecule: CC(=O)Nc1sc2c(c1C#N)CCCCC2
Reply: -5.5e-05

Query: Look up NADPH fluorescence slope with Voltage-gated potassium channel subunit beta-2 (Rattus norvegicus) for this molecule: COc1ccc(CN(CC(=O)NCC2CCCO2)C(=O)CCC(=O)Nc2cc(C)on2)cc1 (stereo unspecified)
Reply: -1.6e-05

Query: Look up NADPH fluorescence slope with Voltage-gated potassium channel subunit beta-2 (Rattus norvegicus) for this molecule: Cc1cc(=O)[nH]c(SCC(=O)NCc2ccco2)n1
Reply: -7.3e-05

Query: Look up NADPH fluorescence slope with Voltage-gated potassium channel subunit beta-2 (Rattus norvegicus) for this molecule: c1ccc(-c2nn3nnnc3c3ccccc23)cc1
Reply: -2.5e-05

Query: Look up NADPH fluorescence slope with Voltage-gated potassium channel subunit beta-2 (Rattus norvegicus) for this molecule: N#Cc1cnn(Cc2ccc(Cl)cc2)c1N
Reply: -5.6e-05

Query: Look up NADPH fluorescence slope with Voltage-gated potassium channel subunit beta-2 (Rattus norvegicus) for this molecule: O=C(CCCn1ncn2c(cc3occc32)c1=O)N1CCc2ccccc2C1
Reply: -0.00018

Query: Look up NADPH fluorescence slope with Voltage-gated potassium channel subunit beta-2 (Rattus norvegicus) for this molecule: O=C(CSc1nnc2sc3ccccc3n12)c1ccco1
Reply: -5e-05

Query: Look up NADPH fluorescence slope with Voltage-gated potassium channel subunit beta-2 (Rattus norvegicus) for this molecule: COc1ccc(NC(=O)Nc2ccccc2C)c(OC)c1
Reply: -7.9e-05

Query: Look up NADPH fluorescence slope with Voltage-gated potassium channel subunit beta-2 (Rattus norvegicus) for this molecule: Cc1cnc(C(=O)Nc2ccc(N3CCN(C(=O)OC(C)(C)C)CC3)cc2)cn1
Reply: -3.5e-05
